# credit: ChEMBL document CHEMBL1127433

- study target: Adenosine A2 receptor (Rattus norvegicus) (UniProt P29276+P30543)
- experimental protocol: Percent displacement from adenosine A2 receptor at 10e-5 M in rat striatal membrane in vitro.
- Assay type: cell membranes
Reported Displacement values for the following compounds.
parameter: Displacement (%)

Cc1c(CCNc2ncnc3c2ncn3[C@@H]2O[C@H](C(=O)NC3CC3)[C@@H](O)[C@H]2O)c2ccccc2n1C1CCCC1 = 92
Cc1ccc(C)c(Cn2c(-c3ccccc3)c(CCNc3ncnc4c3ncn4C3O[C@H](C(=O)NC4CC4)[C@@H](O)[C@H]3O)c3ccccc32)c1 (some centres undefined) = 23
C#CCn1cc(CCNc2ncnc3c2ncn3C2O[C@H](C(=O)NC3CC3)[C@@H](O)[C@H]2O)c2ccccc21 (some centres undefined) = 83
O=C(NC1CC1)[C@H]1OC(n2cnc3c(NCCc4cn(Cc5ccc(Cl)cc5)c5ccccc45)ncnc32)[C@H](O)[C@@H]1O (some centres undefined) = 91

* * *

- System: Mus musculus
- experimental protocol: Effective dose for phenylbenzoquinone-induced writhing in mice after peroral administration expressed as analgesic activity.
- Assay type: functional
- condition context: po
The entries below come with measured ED50 values attached.
parameter: ED50

O=C(NC1CC1)[C@H]1OC(n2cnc3c(NCCc4cn(Cc5ccc(Cl)cc5)c5ccccc45)ncnc32)[C@H](O)[C@@H]1O (some centres undefined) = 0.9 mg/kg
Cn1cc(CCNc2ncnc3c2ncn3C2O[C@H](C(=O)NC3CC3)[C@@H](O)[C@H]2O)c2ccccc21 (some centres undefined) = 3 mg/kg
O=C(NC1CC1)[C@H]1O[C@@H](n2cnc3c(NCCc4cn(Cc5cccc6ccccc56)c5ccccc45)ncnc32)[C@H](O)[C@@H]1O = 2.4 mg/kg
CNC(=O)[C@H]1O[C@@H](n2cnc3c(NCCc4cn(Cc5cc(C)ccc5C)c5ccccc45)ncnc32)[C@H](O)[C@@H]1O = 10.2 mg/kg

* * *

Entries annotated with measured ED50
- Tested on: Mus musculus
- experimental protocol: Effective dose for phenylbenzoquinone-induced writhing in mice after peroral administration expressed as analgesic activity.
- Assay type: functional
- condition context: po
parameter: ED50 (mg/kg)

Cc1ccc(C)c(Cn2cc(CCNc3ncnc4c3ncn4[C@@H]3O[C@H](C(=O)NC4CC4)[C@@H](O)[C@H]3O)c3cc(C)ccc32)c1 = 0.9
Cc1ccc(C)c(Cn2cc(CC(C)Nc3ncnc4c3ncn4C3O[C@H](C(=O)NC4CC4)[C@@H](O)[C@H]3O)c3ccccc32)c1 (some centres not stated) = 3.6
O=C(NC1CC1)[C@H]1O[C@@H](n2cnc3c(NCCc4cn(CCN5CCCC5)c5ccccc45)ncnc32)[C@H](O)[C@@H]1O = 44.2
O=C(NC1CC1)[C@H]1OC(n2cnc3c(NCCc4cn(Cc5ccc(Cl)s5)c5ccccc45)ncnc32)[C@H](O)[C@@H]1O (some centres not stated) = 26.2
CC(C)n1cc(CCNc2ncnc3c2ncn3[C@@H]2O[C@H](C(=O)NC3CC3)[C@@H](O)[C@H]2O)c2ccccc21 = 1.6
O=C(NC1CC1)[C@H]1OC(n2cnc3c(NCCc4cn(Cc5ccccc5)c5ccccc45)ncnc32)[C@H](O)[C@@H]1O (some centres not stated) = 18.1

* * *

- study target: Adenosine A2 receptor (Rattus norvegicus, UniProt P29276+P30543)
- experimental protocol: Binding affinity for adenosine A2 receptor in vitro using rat striatal membrane.
- Assay type: cell membranes
parameter: Ki

Cc1ccc(Cn2cc(CCNc3ncnc4c3ncn4C3O[C@H](C(=O)NC4CC4)[C@@H](O)[C@H]3O)c3ccccc32)cc1C (stereo partly drawn) = 820 nM
O=C(NC1CC1)[C@H]1O[C@@H](n2cnc3c(NCCc4cn(Cc5cccc([N+](=O)[O-])c5)c5ccccc45)ncnc32)[C@H](O)[C@@H]1O = 182 nM
O=C(NC1CC1)[C@H]1O[C@@H](n2cnc3c(NCCc4cn(C5CCCC5)c5ccccc45)ncnc32)[C@H](O)[C@@H]1O = 350 nM

* * *

- study target: Adenosine receptor A1 (Rattus norvegicus) (UniProt P25099)
- Sequence (P25099 whole entry): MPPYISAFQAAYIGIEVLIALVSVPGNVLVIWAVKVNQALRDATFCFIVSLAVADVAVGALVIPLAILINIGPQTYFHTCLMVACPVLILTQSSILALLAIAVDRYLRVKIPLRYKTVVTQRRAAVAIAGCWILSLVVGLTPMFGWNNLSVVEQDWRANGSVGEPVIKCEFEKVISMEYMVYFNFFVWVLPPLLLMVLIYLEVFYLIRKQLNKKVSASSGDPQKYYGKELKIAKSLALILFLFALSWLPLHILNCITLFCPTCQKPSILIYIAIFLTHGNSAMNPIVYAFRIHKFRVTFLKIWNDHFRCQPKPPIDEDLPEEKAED
- experimental protocol: Percent displacement from adenosine A1 receptor at 10e-7 M in rat brain membrane in vitro.
- Format: cell membranes
Tag: YES if measured Displacement is not below 40%, NO if it is.

CN(C)CCn1cc(CCNc2ncnc3c2ncn3C2O[C@H](C(=O)NC3CC3)[C@@H](O)[C@H]2O)c2ccccc21 (some centres not stated) = YES
COc1ccccc1Cn1cc(CCNc2ncnc3c2ncn3C2O[C@H](C(=O)NC3CC3)[C@@H](O)[C@H]2O)c2ccccc21 (some centres not stated) = YES
O=C(NC1CC1)[C@H]1O[C@@H](n2cnc3c(NCCc4c[nH]c5ccccc45)ncnc32)[C@H](O)[C@@H]1O = YES
Cc1c(CCNc2ncnc3c2ncn3[C@@H]2O[C@H](C(=O)NC3CC3)[C@@H](O)[C@H]2O)c2ccccc2n1C1CCCC1 = NO
Cc1ccc(C)c(Cn2cc(C(C)CNc3ncnc4c3ncn4[C@@H]3O[C@H](C(=O)NC4CC4)[C@@H](O)[C@H]3O)c3ccccc32)c1 (some centres not stated) = NO
OC[C@H]1OC(n2cnc3c(NCCc4cn(Cc5c(Cl)cccc5Cl)c5ccccc45)ncnc32)[C@H](O)[C@@H]1O (some centres not stated) = NO

* * *

- study target: Adenosine receptor A1 (Rattus norvegicus)
- experimental protocol: Percent displacement from adenosine A1 receptor at 10e-7 M in rat brain membrane in vitro.
- Assay type: cell membranes
// label = Satisfied if Displacement is not less than 20%, otherwise Not satisfied

COc1ccc(Cn2cc(CCNc3ncnc4c3ncn4C3O[C@H](C(=O)NC4CC4)[C@@H](O)[C@H]3O)c3ccccc32)cc1 (some centres undefined) = Satisfied
COCCNC(=O)[C@H]1O[C@@H](n2cnc3c(NCCc4cn(Cc5ccc(Cl)cc5)c5ccccc45)ncnc32)[C@H](O)[C@@H]1O = Not satisfied
CC(C)(CO)NC(=O)[C@H]1OC(n2cnc3c(NCCc4cn(Cc5ccc(Cl)cc5)c5ccccc45)ncnc32)[C@H](O)[C@@H]1O (some centres undefined) = Not satisfied
O=C(NC1CC1)[C@H]1OC(n2cnc3c(NCCc4cn(CCN5CCCCC5)c5ccccc45)ncnc32)[C@H](O)[C@@H]1O (some centres undefined) = Satisfied
O=C(NC1CC1)[C@H]1O[C@@H](n2cnc3c(NCCc4cn(CCN5CCCC5)c5ccccc45)ncnc32)[C@H](O)[C@@H]1O = Satisfied
CC(Cc1cn(C2CCCC2)c2ccccc12)Nc1ncnc2c1ncn2C1O[C@H](C(=O)NC2CC2)[C@@H](O)[C@H]1O (some centres undefined) = Satisfied
O=C(NC1CC1)[C@H]1OC(n2cnc3c(NCCc4cn(Cc5ccc(Cl)cc5)c5ccc(Cl)cc45)ncnc32)[C@H](O)[C@@H]1O (some centres undefined) = Satisfied
Cc1ccc(C)c(Cn2cc(CC(C)Nc3ncnc4c3ncn4C3O[C@H](C(=O)NC4CC4)[C@@H](O)[C@H]3O)c3ccccc32)c1 (some centres undefined) = Satisfied
O=C(NC1CC1)[C@H]1OC(n2cnc3c(NCCc4cn(CCN5CCOCC5)c5ccccc45)ncnc32)[C@H](O)[C@@H]1O (some centres undefined) = Satisfied
Cc1ccc(C)c(Cn2cc(CCNc3ncnc4c3ncn4[C@@H]3O[C@H](C(=O)NC4CC4)[C@@H](O)[C@H]3O)c3cc(C)ccc32)c1 = Satisfied
Cc1ccc(C)c(Cn2cc(CCNc3ncnc4c3ncn4[C@@H]3O[C@H](C(=O)NC4CC4)[C@@H](O)[C@H]3O)c3cc(Cl)ccc32)c1 = Satisfied
CC(C)n1cc(CCNc2ncnc3c2ncn3[C@@H]2O[C@H](C(=O)NC3CC3)[C@@H](O)[C@H]2O)c2ccccc21 = Not satisfied
COc1ccc2c(c1)c(CCNc1ncnc3c1ncn3C1O[C@H](C(=O)NC3CC3)[C@@H](O)[C@H]1O)cn2Cc1cc(C)ccc1C (some centres undefined) = Not satisfied

* * *

- study target: Adenosine A2 receptor (Rattus norvegicus) (UniProt P29276+P30543)
- experimental protocol: Percent displacement from adenosine A2 receptor at 10e-5 M in rat striatal membrane in vitro.
- Assay type: cell membranes
parameter: Displacement (%)

Cc1ccc(C)c(Cn2cc(CCNc3ncnc4c3ncn4[C@@H]3O[C@H](C(=O)NC4CC4)[C@@H](O)[C@H]3O)c3cc(Cl)ccc32)c1 = 77
COc1ccc2c(c1)c(CCNc1ncnc3c1ncn3C1O[C@H](C(=O)NC3CC3)[C@@H](O)[C@H]1O)cn2Cc1cc(C)ccc1C (some centres undefined) = 91
COCCNC(=O)[C@H]1O[C@@H](n2cnc3c(NCCc4cn(Cc5ccc(Cl)cc5)c5ccccc45)ncnc32)[C@H](O)[C@@H]1O = 36
OC[C@H]1O[C@@H](n2cnc3c(NCCc4cn(Cc5ccc(Cl)cc5)c5ccccc45)ncnc32)[C@H](O)[C@@H]1O = 97
O=C(NC1CC1)[C@H]1O[C@@H](n2cnc3c(NCCc4cn(C5CCCC5)c5ccccc45)ncnc32)[C@H](O)[C@@H]1O = 90
Cc1ccc(C)c(Cn2cc(CCNc3ncnc4c3ncn4C3O[C@H](C(=O)NCCN4CCOCC4)[C@@H](O)[C@H]3O)c3ccccc32)c1 (some centres undefined) = 19
O=C(NC1CC1)[C@H]1OC(n2cnc3c(NCCc4cn(Cc5ccc(Cl)c(Cl)c5)c5ccccc45)ncnc32)[C@H](O)[C@@H]1O (some centres undefined) = 81
Cc1ccc(C)c(Cn2cc(CC(C)Nc3ncnc4c3ncn4C3O[C@H](C(=O)NC4CC4)[C@@H](O)[C@H]3O)c3ccccc32)c1 (some centres undefined) = 84
CN(C)c1ccccc1Cn1cc(CCNc2ncnc3c2ncn3C2O[C@H](C(=O)NC3CC3)[C@@H](O)[C@H]2O)c2ccccc21 (some centres undefined) = 92
O=C(NC1CC1)[C@H]1O[C@@H](n2cnc3c(NCCc4cn(Cc5cccc6ccccc56)c5ccccc45)ncnc32)[C@H](O)[C@@H]1O = 76
Cc1ccccc1Cn1cc(CCNc2ncnc3c2ncn3C2O[C@H](C(=O)NC3CC3)[C@@H](O)[C@H]2O)c2ccccc21 (some centres undefined) = 93
CNC(=O)[C@H]1O[C@@H](n2cnc3c(NCCc4cn(Cc5cc(C)ccc5C)c5ccccc45)ncnc32)[C@H](O)[C@@H]1O = 68
CC(Cc1cn(C2CCCC2)c2ccccc12)Nc1ncnc2c1ncn2C1O[C@H](C(=O)NC2CC2)[C@@H](O)[C@H]1O (some centres undefined) = 85
CC(C)n1cc(CCNc2ncnc3c2ncn3[C@@H]2O[C@H](C(=O)NC3CC3)[C@@H](O)[C@H]2O)c2ccccc21 = 91
